Where do the numbers come from? From patent US9247741B2.

Test system: Mycosphaerella graminicola; Anamorph: Septoria tritici
Assay explanation: Leaf blotch of wheat (SEPTTR) disease control on wheat seedlings
Format: in vivo
Assay context: Zymoseptoria tritici, 72 h; 3 Day Curative, 100 ppm (high volume), wheat; read-out: SEPTTR 3DC disease control rating
Listed next: entries and their corresponding pest or weed control at 100 ppm.

Inquiry: Need pest or weed control at 100 ppm of COc1ccnc(C(=O)N[C@H]2CCC[C@H](OCC3CC3)[C@@H](Cc3ccccc3)[C@H](C)OC2=O)c1OCOC(C)=O [Compound 56] , thanks.
Reply text: > 70%

Inquiry: // lookup pest or weed control at 100 ppm for COc1ccnc(C(=O)N[C@H]2CCC[C@H](OCC3CC3)[C@@H](Cc3ccccc3)[C@H](C)OC2=O)c1OC(C)=O [Compound 76]
Reply text: > 70%

Inquiry: Which pest or weed control at 100 ppm is listed for COc1ccnc(C(=O)N[C@H]2CCC[C@H](OCc3ccccc3)[C@@H](CCC(C)C)[C@H](C)OC2=O)c1O [Compound 58] ?
Reply text: < 70%

Inquiry: GET /values?readout=pest or weed control at 100 ppm&item= COc1ccnc(C(=O)N[C@H]2CCC[C@H](Oc3ccc(C)cc3)[C@@H](Cc3ccc(F)cc3)[C@H](C)OC2=O)c1O [Compound 38]
Reply text: < 70%

Inquiry: Which pest or weed control at 100 ppm value is on record for COc1ccnc(C(=O)N[C@H]2CCC[C@H](OCC3CC3)[C@@H](Cc3ccc(F)cc3)[C@H](C)OC2=O)c1O [Compound 26] ?
Reply text: < 70%

Inquiry: # get_value(readout='pest or weed control at 100 ppm', item= CCCO[C@H]1CCC[C@H](NC(=O)c2nccc(OC)c2O)C(=O)O[C@@H](C)[C@@H]1Cc1ccc(F)cc1 [Compound 37] )
Reply text: < 70%
